- EXPERIMENTAL SYSTEM: HCV NS5B RdRp genotype 1b (Hepatitis C virus genotype 1b)
- Construct: The protein was expressed with an 18 amino acid C-terminal truncation to enhance the solubility; made in house; host or cells: E. coli BL21 (DE3), pET21a
- Sequence (Q9WMX2 2420-2992): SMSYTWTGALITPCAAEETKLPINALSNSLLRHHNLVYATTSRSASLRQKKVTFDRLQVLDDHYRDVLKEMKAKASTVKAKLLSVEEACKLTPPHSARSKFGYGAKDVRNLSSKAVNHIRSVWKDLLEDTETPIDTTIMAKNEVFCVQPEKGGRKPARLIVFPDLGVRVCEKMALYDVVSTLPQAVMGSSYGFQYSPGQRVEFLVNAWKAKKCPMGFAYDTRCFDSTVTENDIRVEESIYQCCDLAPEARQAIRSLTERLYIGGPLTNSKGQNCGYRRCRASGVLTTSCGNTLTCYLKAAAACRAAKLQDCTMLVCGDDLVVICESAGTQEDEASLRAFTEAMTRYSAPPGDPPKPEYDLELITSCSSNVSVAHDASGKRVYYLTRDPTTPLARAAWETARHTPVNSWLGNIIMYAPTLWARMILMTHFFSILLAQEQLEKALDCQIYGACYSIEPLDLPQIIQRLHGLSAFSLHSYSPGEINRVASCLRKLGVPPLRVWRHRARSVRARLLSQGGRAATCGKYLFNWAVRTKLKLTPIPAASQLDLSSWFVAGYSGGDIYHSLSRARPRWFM
- EXPERIMENT DESCRIPTION: Modified HCV NS5B RdRp enzyme assay (with preincubation)
- Assay type: biochemical
- EXPERIMENTAL SETUP: modified method (with preincubation)
Some compounds, each annotated with its measured IC50.

In the examples that follow, each entry is paired with its recorded IC50.
{"columns": ["COMPOUND", "RESULT TYPE", "TEST RESULT"],
 "data": [
  ["CC(C)N(C)C(=O)C1=Cc2ccccc2-c2c(C3CCCCC3)c3ccc(C(=O)NS(=O)(=O)N(C)C)cc3n2C1", "IC50", "20 to 1000 nM"],
  ["CN(C)S(=O)(=O)NC(=O)c1ccc2c(C3CCCCC3)c3n(c2c1)C[C@H](C(=O)N1CCC(N2CCCC2)CC1)Cc1ccccc1-3", "IC50", "20 to 1000 nM"],
  ["CN(C)C(=O)C1=Cc2ccccc2-c2c(C3CCCCC3)c3ccc(C(=O)O)cc3n2C1", "IC50", "20 to 1000 nM"],
  ["C[C@@H]1CN(C(=O)C2=Cc3ccccc3-c3c(C4CCCCC4)c4ccc(C(=O)O)cc4n3C2)C[C@H](C)O1", "IC50", "20 to 1000 nM"],
  ["O=C(O)/C=C/c1ccc(NC(=O)C2(NC(=O)c3ccc4c(C5CCCCC5)c5n(c4c3)C[C@@H](O)[C@@H](O)c3ccccc3-5)CCCC2)cc1", "IC50", "20 to 1000 nM"],
  ["Cn1c(C(=O)O)cc2cc(NC(=O)C3(NC(=O)c4ccc5c(C6CCCCC6)c6n(c5c4)CCNc4ccccc4-6)CCCC3)ccc21", "IC50", "20 to 1000 nM"],
  ["Nc1nc2c(s1)CCCn1c-2c(C2CCCCC2)c2ccc(C(=O)O)cc21", "IC50", "> 1000 nM"],
  ["O=C(O)/C=C/c1ccc(NC(=O)C2(NC(=O)c3ccc4c(C5CCCCC5)c5n(c4c3)CC(C(=O)N3CCC(N4CCCC4)CC3)Cc3ccccc3-5)CCCC2)cc1 (stereo not drawn)", "IC50", "20 to 1000 nM"]
]}

Task: Item O=C1Cn2c(c(C3CCCCC3)c3ccc(C(=O)NC4(C(=O)Nc5ccc(-c6cscn6)cc5)CCCC4)cc32)-c2ccccc2N1 has what recorded IC50?
Result: 20 to 1000 nM

Task: Can you handle O=C(O)c1ccc2c(C3CCCCC3)c3n(c2c1)C[C@@H](O)[C@@H](O)c1ncccc1-3 next?
Result: 20 to 1000 nM

Task: Can you handle CN(C)S(=O)(=O)NC(=O)c1ccc2c(C3CCCCC3)c3n(c2c1)CC(C(=O)N1CCN(c2ccncc2)CC1)=Cc1ccccc1-3 next?
Result: 20 to 1000 nM

Task: Can you handle CN(C)S(=O)(=O)NC(=O)c1ccc2c(C3CCCCC3)c3n(c2c1)CCN(C(=O)OC(C)(C)C)c1ccccc1-3 next?
Result: 20 to 1000 nM

Task: Can you handle COC(=O)c1ccc2c(C3CCCCC3)c3n(c2c1)CC(CO)Cc1ccccc1-3 (stereo not drawn) next?
Result: > 1000 nM

Task: Can you handle CS(=O)(=O)NC(=O)c1ccc2c(C3CCCCC3)c3n(c2c1)CC(C(=O)N1CCOCC1)Cc1ccccc1-3 (stereo not drawn) [drawing 349] next?
Result: 20 to 1000 nM

Task: Can you handle CN(C)S(=O)(=O)NC(=O)c1ccc2c(C3CCCCC3)c3n(c2c1)C[C@@H](O)[C@@H](O)c1ccccc1-3 next?
Result: > 1000 nM

====

- EXPERIMENTAL SYSTEM: HCV NS5B RdRp genotype 1b (Hepatitis C virus genotype 1b)
- Construct: The protein was expressed with an 18 amino acid C-terminal truncation to enhance the solubility; made in house; host or cells: E. coli BL21 (DE3), pET21a
- EXPERIMENT DESCRIPTION: Modified HCV NS5B RdRp enzyme assay (with preincubation)
- Assay type: biochemical
- EXPERIMENTAL SETUP: modified method (with preincubation)
pIC50: −log10 of the molar value.
RESULT TYPE: pIC50

{"columns": ["MOLECULE", "pIC50"],
 "data": [
  ["O=C(O)/C=C/c1ccc(NC(=O)C2(NC(=O)c3ccc4c(C5CCCCC5)c5n(c4c3)CC(=O)Nc3ccccc3-5)CCCC2)cc1", "6.00 to 7.70"],
  ["COC(=O)c1ccc2c(C3CCCCC3)c3n(c2c1)CC(C(=O)OCc1ccccc1)=Cc1ccccc1-3 [drawing 322]", "< 6.00"],
  ["CN(C)S(=O)(=O)NC(=O)c1ccc2c(C3CCCCC3)c3n(c2c1)CC(C(=O)N1CCOCC1)=Cc1ccc(Cl)cc1-3", "6.00 to 7.70"]
]}

Task: Item O=C(O)c1ccc2c(C3CCCCC3)c3n(c2c1)C=C(C(=O)N1CCOCC1)Cc1ccncc1-3 has what recorded pIC50?
Result: < 6.00

Task: Can you handle COC(=O)c1ccc2c(c1)CCN(S(=O)(=O)NC(=O)c1ccc3c(C4CCCCC4)c4n(c3c1)CC(=O)Nc1ccccc1-4)C2 next?
Result: 6.00 to 7.70

Task: Can you handle COC(=O)c1ccc2c(C3CCCCC3)c3n(c2c1)CC(N1CCOCC1)Cc1ccccc1-3 (stereo not shown) next?
Result: < 6.00

Task: Can you handle CN(C)S(=O)(=O)NC(=O)c1ccc2c(C3CCCCC3)c3n(c2c1)CC=Cc1ncccc1-3 next?
Result: 6.00 to 7.70

Task: Can you handle O=C(O)c1ccc2c(C3CCCCC3)c3n(c2c1)CC(C(=O)N1CCOCC1)=Cc1ccncc1-3 next?
Result: 6.00 to 7.70

Task: Can you handle COC(=O)c1ccc2c(C3CCCCC3)c3n(c2c1)CC(C#N)=Cc1ccccc1-3 next?
Result: < 6.00

Task: Can you handle O=C(O)/C=C/c1ccc(NC(=O)C2(NC(=O)c3ccc4c(C5CCCCC5)c5n(c4c3)CCCn3ccnc3-5)CCCC2)cc1 next?
Result: 6.00 to 7.70

Task: Can you handle COC(=O)/C=C/c1ccc(NC(=O)C2(NC(=O)c3ccc4c(C5CCCCC5)c5n(c4c3)CCCc3ncccc3-5)CCCC2)cc1 next?
Result: 6.00 to 7.70

Task: Can you handle COC(=O)c1ccc2c(C3CCCCC3)c3n(c2c1)CC(C(=O)N1CCOCC1)=C(C)c1ccccc1-3 next?
Result: < 6.00

Task: Can you handle O=C(NS(=O)(=O)C1CC1)c1ccc2c(C3CCCCC3)c3n(c2c1)CC(C(=O)N1CCOCC1)Cc1ccccc1-3 (stereo not shown) [drawing 289] next?
Result: 6.00 to 7.70

Task: Can you handle COc1ccc2c(c1)C=C(C(=O)N1CCOCC1)Cn1c-2c(C2CCCCC2)c2ccc(C(=O)O)cc21 next?
Result: 6.00 to 7.70

Task: Can you handle COC(=O)c1ccc2c(C3CCCCC3)c3n(c2c1)CC(C(=O)O)=Cc1ccccc1-3 next?
Result: 6.00 to 7.70

Task: Can you handle CN(C)C(=O)N1CCn2c(c(C3CCCCC3)c3ccc(C(=O)NS(=O)(=O)N(C)C)cc32)-c2ccccc21 next?
Result: 6.00 to 7.70

====

- EXPERIMENTAL SYSTEM: HCV NS5B RdRp genotype 1b (Hepatitis C virus genotype 1b)
- Construct: The protein was expressed with an 18 amino acid C-terminal truncation to enhance the solubility; made in house; host or cells: E. coli BL21 (DE3), pET21a
- EXPERIMENT DESCRIPTION: Modified HCV NS5B RdRp enzyme assay (with preincubation)
- Format: biochemical
- EXPERIMENTAL SETUP: preincubation protocol
RESULT TYPE: IC50

{"columns": ["MOLECULE", "EXPERIMENTAL SYSTEM", "IC50"],
 "data": [
  ["COC(=O)c1ccc2c(C3CCCCC3)c3n(c2c1)C(O)c1cc(OCc2ccccc2)ccc1-3 (centres unmarked)", "HCV NS5B RdRp genotype 1b (Hepatitis C virus genotype 1b)", "1000 to 10000 nM"],
  ["COc1ccc2c(c1)C=C(C(=O)N1[C@H](C)CC[C@H]1C)Cn1c-2c(C2CCCCC2)c2ccc(C(=O)NS(=O)(=O)N(C)C)cc21", "HCV NS5B RdRp genotype 1b (Hepatitis C virus genotype 1b)", "10 to 1000 nM"],
  ["COc1ccc2c(c1)C=C(C(=O)N1CCC[C@H](O)C1)Cn1c-2c(C2CCCCC2)c2ccc(C(=O)NS(=O)(=O)N(C)C)cc21", "HCV NS5B RdRp genotype 1b (Hepatitis C virus genotype 1b)", "10 to 1000 nM"],
  ["COC(=O)C1=Cc2c(OC)cccc2-c2c(C3CCCCC3)c3ccc(C(=O)OC)cc3n2C1", "HCV NS5B RdRp genotype 1b (Hepatitis C virus genotype 1b)", "> 4000 nM"],
  ["COc1ccc2c(c1)C=C(C(=O)N1CCC[C@@H](O)C1)Cn1c-2c(C2CCCCC2)c2ccc(C(=O)NS(=O)(=O)N(C)C)cc21", "HCV NS5B RdRp genotype 1b (Hepatitis C virus genotype 1b)", "10 to 1000 nM"],
  ["O=C(O)c1ccc2c(C3CCCCC3)c3n(c2c1)C(C(=O)N1CCOCC1)CNc1ccccc1-3 (centres unmarked)", "HCV NS5B RdRp genotype 1b (Hepatitis C virus genotype 1b)", "> 1000 nM"],
  ["COC(=O)c1ccc2c(C3CCCCC3)c3n(c2c1)CC(C(=O)O)=Cc1occc1-3", "HCV NS5B RdRp genotype 1b (Hepatitis C virus genotype 1b)", "1000 to 10000 nM"],
  ["C[C@@H]1CN(C(=O)C2(F)Cc3ccccc3-c3c(C4CCCCC4)c4ccc(C(=O)O)cc4n3C2)C[C@H](O)O1 (some centres unmarked)", "HCV NS5B RdRp genotype 1b (Hepatitis C virus genotype 1b)", "10 to 1000 nM"],
  ["COc1ccc2c(c1)C(=O)n1c-2c(C2CCCCC2)c2ccc(C(=O)NS(=O)(=O)N(C)C)cc21", "HCV NS5B RdRp genotype 1b (Hepatitis C virus genotype 1b)", "10 to 1000 nM"],
  ["C[C@@H]1CN(C(=O)C2=Cc3cc(F)ccc3-c3c(C4CCCCC4)c4ccc(C(=O)NS(=O)(=O)N(C)C)cc4n3C2)C[C@H](C)N1", "HCV NS5B RdRp genotype 1b (Hepatitis C virus genotype 1b)", "10 to 1000 nM"]
]}

Shift focus to the following entry.
Task: Item COC(=O)c1ccc2c(C3CCCCC3)c3n(c2c1)C(O)c1cc(N(C)C)ccc1-3 (centres unmarked) has what recorded IC50?
Result: > 4000 nM
